TGT: SARS-CoV-2 Beta (B.1.351) Spike on pseudovirions (SARS-CoV-2)
EXPERIMENT DESCRIPTION: cell-based or functional assay
I'd be grateful if you could share measured pseudovirus neutralization IC80 for these entries.
Report the value in mg/L with no unit label.

In: Any idea what its pseudovirus neutralization IC80 is? The binder is ShAb01H06K (ShAb01Hole-06Knob) (bispecific antibody, V domains shown) V domain 1: ARVDQTPRSVTKETGESLTINCVLRDSNCALSSTHWYRKKSGSTNEERILQGRRYVETVNSGSKSFSLRINDLRVEDSGTYRCKVYWGNSWQDKFCPGLGSYEYGDGTAVTVNS V domain 2: ARVDQTPRSVTKETGESLTINCVLRDASYALGSTCWYRKKSGSTNEESISKGGRYVETVNSGSKSFSLRINDLTVEDGGTYRCGVGRGLGVGCDYPLCSYSYAACGDGTAVTVNS
Out: 6.17

In: Any idea what its pseudovirus neutralization IC80 is? The binder is ShAb06H02K (ShAb06Hole-02Knob) (bispecific antibody, V domains shown) V domain 1: ARVDQTPRSVTKETGESLTINCVLRDASYALGSTCWYRKKSGSTNEESISKGGRYVETVNSGSKSFSLRINDLTVEDGGTYRCGVGRGLGVGCDYPLCSYSYAACGDGTAVTVNS V domain 2: ARVDQTPQTITKETGESLTINCVLRDSNCALASTDWYRKKSGSTNEESISKGGRYVETVNSGSKSFSLRINDLTVEDSGTYRCNAWDSWETRQLKCDYDVYGGGTVVTVNS
Out: 0.424

In: Any idea what its pseudovirus neutralization IC80 is? The binder is ShAb01-Foldon (ShAb01 VNAR-KESlinker-Foldon-3c-His8-Strep) (VNAR) VNAR: ARVDQTPRSVTKETGESLTINCVLRDSNCALSSTHWYRKKSGSTNEERILQGRRYVETVNSGSKSFSLRINDLRVEDSGTYRCKVYWGNSWQDKFCPGLGSYEYGDGTAVTVNK
Out: 0.164

In: Any idea what its pseudovirus neutralization IC80 is? The binder is ShAb02-Foldon (ShAb02 VNAR-KESlinker-Foldon-3c-His8-Strep) (VNAR) VNAR: ARVDQTPQTITKETGESLTINCVLRDSNCALASTDWYRKKSGSTNEESISKGGRYVETVNSGSKSFSLRINDLTVEDSGTYRCNAWDSWETRQLKCDYDVYGGGTVVTVNK
Out: 1.8
